Taken from patent US12139488B2.

IC50: recorded values
Test system: pERK in NCIH1755 cells (BRAF G469A)
Experiment: Phospho-ERK inhibition (AlphaLISA), NCIH1755
Assay type: cell-based, human
Conditions: NCIH1755
Experimental: All cancer cell lines (A375, A101D, A2058, RKO, HT29 SK-MEL 30, IPC298, HepG2, HCT-116, Lovo, SWV620, SW480, NCI-H358, NCI-H2122, Calu-6, NCIH2087, NCIH1755, NCIH1666 and Mewo) were obtained from ATCC and cultured in RPMI-1640 medium (Gibco) supplemented with 5% heat inactivated fetal bovine serum (FBS, Wisent) at 37° C. under 5% CO2. Cells were maintained in T175 flasks (Greiner). […] The effect of each compound dilution on the pERK signal was expressed in % inhibition and calculated as follows. […]

CC1(O)CCN(c2cccc3c2ncn3-c2ccc3ncnc(Nc4c(F)ccc(NS(=O)(=O)c5cccc(Cl)c5Cl)c4F)c3n2)CC1 [Example 524]	30 to 300 nM

Query: Give IC50 for Nc1cccc2c1ncn2-c1ccc2ncnc(Nc3c(F)ccc(NS(=O)(=O)c4cccc(Cl)c4Cl)c3F)c2n1 [Example 99]
Reply: < 30 nM
